Literature roundup of HPK1 (Homo sapiens (Human), UniProt Q92918) data, read-out IC50.
Labelling field: enter true (1) if recorded IC50 is less than 3 nM. Enter false (0) if it equals or exceeds that cut-off.

>>> category("CNC(=O)c1cccc(Nc2nc(Nc3cc4c(cc3Cl)CCN(C)C4)ncc2C(N)=O)c1")
"false (0)"
>>> category("Cc1c(-c2cc3nc(Nc4ccc5c(c4)CN(C)CC5)ncc3c(N)c2F)cnc2c1NCC(C)(C)O2")
"true (1)"
>>> category("Cc1c(-c2cc3nc(Nc4cnn(Cc5ccccc5)c4)ncc3c(N)c2F)cnc2c1NCCO2")
"true (1)"
>>> category("Cc1c(-c2cc3nc(Nc4ccc5c(c4)CN(CC(C)(C)O)C5=O)ncc3c(N)c2F)cnc2c1NCCO2")
"true (1)"
>>> category("Cc1cc(-c2c[nH]c3ncc(-c4cc(C)c5c(c4)CN(CCC(=O)N[C@@H]4CCOC4)CC5)nc23)ccc1C(=O)N(C)C")
"false (0)"
>>> category("Cc1c(-c2cc3nc(Nc4cc5c(cn4)CCN(C)C5)ncc3c(N)c2F)cnc2c1NCCO2")
"true (1)"
